Data origin, for the record: patent US20220017589A1

Target: T1, human GFRAL (human, UniProt Q6UXV0 19-394)
T1 sequence (looked up): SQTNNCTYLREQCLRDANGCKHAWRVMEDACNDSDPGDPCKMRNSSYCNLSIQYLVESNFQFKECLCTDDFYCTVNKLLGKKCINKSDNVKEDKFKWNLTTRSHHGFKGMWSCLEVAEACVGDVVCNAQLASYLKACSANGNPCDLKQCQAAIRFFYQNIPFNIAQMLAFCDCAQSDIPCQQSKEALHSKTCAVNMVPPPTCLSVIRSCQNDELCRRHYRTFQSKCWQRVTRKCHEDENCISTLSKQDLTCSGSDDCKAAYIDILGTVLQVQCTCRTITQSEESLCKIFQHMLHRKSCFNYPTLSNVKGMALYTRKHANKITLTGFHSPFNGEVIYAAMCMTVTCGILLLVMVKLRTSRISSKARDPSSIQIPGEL
Assay: cell-based or functional assay
# reported GDF15 activity (EC50, pM); entries follow
Use pM as the unit, but write only the number.

Binder	Measure unit	GDF15 activity (EC50, pM)
MLC018 (ligand, Moiety A (HOOC-(CH2)16-CO-gGlu-2XADO) on 52K of Linker (83K of fusion polypeptide)) HGEGTFTSDVSSYLEEQAAREFIAWLVRGGGGQEPGAQPGQEPGAQPGQEPGAQPGQEPGAQPGQEPGAQPGQEPGAQPGQEKGAQPGQEPGAQPGQEPGAQPGQEPGAQPARQGDHCPLGPGRCCRLHTVRASLEDLGWADWVLSPREVQVTMCIGACPSQFRAANLHAQIKTSLHRLRPDTVPAPCCVPASYNPMVLIQRTDTGVSLQTYDDLLARDCHCI	pM	75.5

Please fill in: GDF15 activity (EC50, pM) reported for MLC064 (ligand, Moiety A (HOOC-(CH2)16-CO-gGlu-2XADO) on 51K of Linker (82K of fusion polypeptide)) HGEGTFTSDVSSYLEEQAAREFIAWLVRGGGGQEPGAQPGQEPGAQPGQEPGAQPGQEPGAQPGQEPGAQPGQEPGAQPGAKPGAQPGAQPGAQPGAQPGAQPGAQPGAQPARQGDHCPLGPGRCCRLHTVRASLEDLGWADWVLSPREVQVTMCIGACPSQFRAANLHAQIKTSLHRLRPDTVPAPCCVPASYNPMVLIQRTDTGVSLQTYDDLLARDCHCI = 116

The binder identified as MLC086 (ligand, Moiety C (HOOC-(CH2)20-CO-gGlu-2XADO-EDA-CO-CH2) on 37C of Linker (68C of fusion polypeptide)) HGEGTFTSDVSSYLEEQAAKEFIAWLVRGGGGQEPGAQPGQEPGAQPGQEPGAQPGQEPGAQPGQEPCQAPGQEPGAQPGAQPGAQPGAQPGAQPGAQPGAQPGAQPGAQPARQGDHCPLGPGRCCRLHTVRASLEDLGWADWVLSPREVQVTMCIGACPSQFRAANLHAQIKTSLHRLKPDTVPAPCCVPASYNPMVLIQKTDTGVSLQTYDDLLAKDCHCI registered its GDF15 activity (EC50, pM) at 32.4

Notebook: MLC075 (ligand, Moiety C (HOOC-(CH2)20-CO-gGlu-2XADO-EDA-CO-CH2) on 41C of Linker (72C of fusion polypeptide)) HGEGTFTSDVSSYLEEQAAKEFIAWLVRGGGGQEPGAQPGQEPGAQPGQEPGAQPGQEPGAQPGQEPGAQPCQEPGAQPGAQPGAQPGAQPGAQPGAQPGAQPGAQPGAQPARQGDHCPLGPGRCCRLHTVRASLEDLGWADWVLSPREVQVTMCIGACPSQFRAANLHAQIKTSLHRLKPDTVPAPCCVPASYNPMVLIQKTDTGVSLQTYDDLLAKDCHCI , GDF15 activity (EC50, pM) read as 48.6
